# CONDITION: a range is the spread between reports
READOUT LABEL: melting point

Which melting point is listed for ICCCCI ?
5.8 to 6 °C

Quick check: melting point of CC(C)CBr ?
-119 to -117 °C

What value of melting point has been reported for the following compound? NCCNCCN
-40 to -35 °C

Continuing:
Which melting point is reported for this compound? N#Cc1ccccc1
-13 to -12.7 °C

Could you share which melting point value was measured for O=C(c1ccccc1)c1cccc(Br)c1 ?
76 to 81 °C

Which melting point value belongs to CI ?
-67 to -64 °C

Looking for the measured melting point of NC(=O)c1ccccc1N , can you help?
108 to 113 °C

I would be grateful if you could share the reported melting point for O=C1c2ccccc2CCc2ccccc21 .
30 to 33 °C

Look up melting point: CCCCCCCCCC(=O)O
31 to 32 °C

Fill blank: measured melting point of the compound CC1CCCCC1 is ____.
-127 to -126 °C

# melting point lookup, item O=[N+]([O-])c1cccc(S(=O)(=O)Cl)c1
60.9 to 61 °C

Could you tell me which melting point is on file for CCC(C)OC(C)=O (stereo not drawn) ?
-99 to -98.9 °C

Give its melting point value. Item: CC1(O)CCCCC1
25 to 26 °C

Entry under review: COc1ccc(Br)cc1 . Reported melting point?
10 to 13.5 °C

Data request, read-out melting point, for COc1cc(CNC(=O)CCCCC=CC(C)C)ccc1O
65 to 66 °C

# input compound: N#Cc1ccc(C(N)=O)cc1 ; wanted: its melting point
224 to 227 °C

What value of melting point has been recorded for this entry: CCC(C)C(C)(C)C (stereo not drawn)
-112 °C

Which melting point value is on record for OC1c2ccccc2Oc2ccccc21 ?
123 to 128 °C

* * *

# CONDITION: a range is the spread between reports
READOUT LABEL: melting point

As a guide, the following entries are already answered.
Please look up its melting point: C=CCC
-185 °C

Look at this molecule and give its reported melting point. O=Cc1ccc(O)cc1O
135 to 136 °C

What measured melting point goes with N#Cc1ccccc1C(N)=O ?
172 to 173 °C

Data request, read-out melting point, for CCOc1ccc(N)cc1
2.4 to 4 °C

Entry CC(=O)c1cc(C)ccc1O has what melting point?
47 to 50 °C

Find the recorded melting point belonging to N#CN and report it.
44 to 45.6 °C

Would you mind telling me what melting point value was observed for C=C(C)CCCC ?
-103 °C

Given OCc1ccccc1-c1ccccc1 , state its recorded melting point.
49 to 50 °C

Continuing:
If you can, please state the reported melting point value of NC(=O)CCl .
118 to 121 °C

Requested read-out: melting point. Entry: Cc1ccc([N+](=O)[O-])cc1N
106 to 108 °C

Returns the measured melting point for the input molecule. Input: CCCCCCCCl
-70 to -69.5 °C

* * *

# CONDITION: a range is the spread between reports
Readings of melting point for the listed compounds

Name the recorded melting point for CC(=O)c1cccc(C(C)=O)c1 .
32 to 36 °C

What value of measured melting point is listed for O=C=Nc1cccc(N=C=O)c1 ?
48 to 50 °C

Entry O=[N+]([O-])c1cccc(Br)c1 has what melting point?
54 to 56 °C

New cases:
Sample CN(C)C(=O)C(c1ccccc1)c1ccccc1 — what was its melting point?
134 to 135 °C

Which melting point value is on record for Cc1cccc(N)c1 ?
-31.3 to -30 °C

Query: melting point; subject: C/C=C\CCC
-141 °C

What does the data say about its melting point? Entry: N#CNC(=N)N
208 to 211 °C

Sample OCC(O)C1OC2OC(C(Cl)(Cl)Cl)OC2C1O (centres undefined) — what was its melting point?
183 to 187 °C

melting point for Cc1nnc(S)s1 ?
184 to 187 °C

These entries and their values trace back to a melting point compilation (Tetko et al.).
